Here the recorded IC50 is given for each entry.
- tgt: chromodomain of CBX5 (human)
- Sequence (Q9UN86 18-75): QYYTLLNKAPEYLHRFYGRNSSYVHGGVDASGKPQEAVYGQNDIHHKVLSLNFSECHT
- protocol.text: AlphaScreen or HTRF
Square brackets hold non-standard residues; d marks the D form. Ends that are not written are not given here. * marks the point of attachment. Lys(Me3) = C[N+](C)(C)CCCC[C@H](N)C(=O)O; NMeF = CN[C@@H](Cc1ccccc1)C(=O)O; Bz = O=C(c1ccccc1)*
quantity.name: IC50

binder: GFALKS (N-terminal benzoyl (Bz) cap; N-methylated glycine amide (N(me)Gly); trimethyl-lysine (Kme3); C-terminal methyl ester (Ser-OMe)) [compound 10]
assay.value: > 60 µM
--
binder: Bz-G[NMeF]AL[Lys(Me3)]S-OMe [compound 9]
assay.value: > 60 µM
--
binder: Bz-FAL[Lys(Me3)] (also: C-terminal R2 = -H in place of -CO-Ser-OMe (no Ser)) [compound 7]
assay.value: > 60 µM
